# MEASURED_TARGET: PH0208-C135A mutant protein (Pyrococcus horikoshii, UniProt O57947, C135A)
# Construct: an N-terminal α-helical domain (residues 1–122) and a C-terminal α-β-α sandwich domain (residues 123–324); made in house; host or cells: Escherichia coli Rosetta (DE3)
# Sequence (O57947 whole entry C135A, the tested form may be a part): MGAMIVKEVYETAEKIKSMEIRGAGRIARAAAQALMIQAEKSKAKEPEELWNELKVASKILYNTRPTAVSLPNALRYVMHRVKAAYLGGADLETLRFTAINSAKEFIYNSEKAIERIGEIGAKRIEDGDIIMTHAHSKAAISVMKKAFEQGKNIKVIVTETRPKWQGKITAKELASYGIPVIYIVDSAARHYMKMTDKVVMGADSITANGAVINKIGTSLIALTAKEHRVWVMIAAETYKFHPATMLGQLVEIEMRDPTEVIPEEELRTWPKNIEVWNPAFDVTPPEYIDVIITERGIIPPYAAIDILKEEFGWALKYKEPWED
# PROCEDURE_DETAILS: biochemical
# Assay type: binding, Pyrococcus horikoshii OT3
RECORDED_ENDPOINT: pKd
Lab note — pKd values are minus log10 of concentrations in M.

Need pKd, item O=C(COP(=O)(O)O)[C@H](O)[C@H](O)COP(=O)(O)O [RuBP, ribulose-1,5-bisphosphate] 3.51

----------
# MEASURED_TARGET: PH0208 protein (PH0208-WT, PH0208-C135S, PH0208-D204N) (Pyrococcus horikoshii, UniProt O57947, M1V)
# Construct: an N-terminal α-helical domain (residues 1–122) and a C-terminal α-β-α sandwich domain (residues 123–324); made in house; host or cells: Escherichia coli Rosetta (DE3)
# Sequence (O57947 whole entry M1V, the tested form may be a part): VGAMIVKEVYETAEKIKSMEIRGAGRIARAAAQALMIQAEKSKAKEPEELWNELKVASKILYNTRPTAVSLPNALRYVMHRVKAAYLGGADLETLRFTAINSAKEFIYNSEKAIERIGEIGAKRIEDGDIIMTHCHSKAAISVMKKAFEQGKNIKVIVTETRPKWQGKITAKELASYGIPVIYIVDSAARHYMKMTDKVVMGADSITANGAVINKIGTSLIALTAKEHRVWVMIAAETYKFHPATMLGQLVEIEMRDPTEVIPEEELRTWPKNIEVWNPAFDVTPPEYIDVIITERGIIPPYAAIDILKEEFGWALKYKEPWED
# PROCEDURE_DETAILS: Co-crystallization or soaking with ribonucleotides (crystal structure complexes)
# Type: binding, Pyrococcus horikoshii OT3
# CONDITION_INFO: co-crystallization or soaking of PH0208-WT, -C135S, -D204N
RECORDED_ENDPOINT: binding of ribonucleotide seen in crystal structure (electron density)

>  <COMPOUND>
Cc1cn([C@H]2C[C@H](O)[C@@H](COP(=O)(O)O)O2)c(=O)[nH]c1=O

>  <RESULT>
no electron density

$$$$
>  <COMPOUND>
Nc1ncnc2c1ncn2[C@@H]1O[C@H](COP(=O)(O)O)[C@@H](O)[C@H]1O [AMP, adenosine 5′-monophosphate]

>  <RESULT>
bound to the proteins

$$$$
>  <COMPOUND>
Nc1ccn([C@@H]2O[C@H](COP(=O)(O)O)[C@@H](O)[C@H]2O)c(=O)n1 [CMP, cytosine 5′-monophosphate]

>  <RESULT>
no electron density

$$$$
>  <COMPOUND>
Nc1nc2c(ncn2[C@@H]2O[C@H](COP(=O)(O)O)[C@@H](O)[C@H]2O)c(=O)[nH]1 [GMP, guanosine 5′-monophosphate]

>  <RESULT>
bound to the proteins

$$$$

----------
# MEASURED_TARGET: PH0208-D204N mutant protein (Pyrococcus horikoshii, UniProt O57947, D204N)
# Construct: an N-terminal α-helical domain (residues 1–122) and a C-terminal α-β-α sandwich domain (residues 123–324); made in house; host or cells: Escherichia coli Rosetta (DE3)
# Sequence (O57947 whole entry D204N, the tested form may be a part): as the sequence (O57947 whole entry M1V, the tested form may be a part) above, with V1M, D204N counted along it
# PROCEDURE_DETAILS: biochemical
# Type: binding, Pyrococcus horikoshii OT3
# CONDITION_INFO: ITC, 25 °C; read-out: Kd
# Experimental: To determine the binding affinity of the substrate (R15P) and the product (RuBP) to the protein PH0208, isothermal titration calorimetry (ITC) experiments were performed. Since binding of the substrate to the PH0208-WT protein triggers a conformational change along with the formation of the product, the heat change measured during the ITC experiment would reflect the sum of heat generated and absorbed during each event. […]
RECORDED_ENDPOINT: pKd
Would you please state pKd, meaning minus log10 of the concentration in mol/L, as a bare number?

Item O=P(O)(O)OC[C@H]1OC(OP(=O)(O)O)[C@H](O)[C@@H]1O (stereo partly shown) [R15P, ribose-1,5-bisphosphate] has what recorded pKd? 5.00

----------
# MEASURED_TARGET: PH0208-C135S mutant protein (Pyrococcus horikoshii, UniProt O57947, C135S)
# Construct: an N-terminal α-helical domain (residues 1–122) and a C-terminal α-β-α sandwich domain (residues 123–324); made in house; host or cells: Escherichia coli Rosetta (DE3)
# Sequence (O57947 whole entry C135S, the tested form may be a part): as the sequence (O57947 whole entry C135A, the tested form may be a part) above, with A135S counted along it
# PROCEDURE_DETAILS: biochemical
# Format: binding, Pyrococcus horikoshii OT3
RECORDED_ENDPOINT: Kd (µM)
Quick reminder: number only, in µM, skip the unit.

What value of Kd has been reported for the following compound? O=C(COP(=O)(O)O)[C@H](O)[C@H](O)COP(=O)(O)O [RuBP, ribulose-1,5-bisphosphate] 7.5

Origin of values: paper PMC5789824
